Just for reference, patent US9994546B2 is where these values come from.

Assay read-out pIC50; system under study: LSD-1 enzyme (Homo sapiens (Human)).
pIC50: −log10 of the molar value.

These solved cases illustrate the format of a correct answer.
>>> value("CNC(=O)CC1(N2CCC(CN[C@@H]3C[C@H]3c3ccccc3)CC2)CNC1 (relative stereo)")
"≥ 7.00"
>>> value("CNC(=O)CC1(N2CCC(N[C@@H]3C[C@H]3c3ccccc3)CC2)CN(C(=O)OC)C1")
"≥ 7.00"
>>> value("N#CCC1(N2CCC(N[C@@H]3C[C@H]3c3ccccc3)CC2)CN(C(=O)Cc2ccccn2)C1")
"≥ 7.00"
>>> value("N#CCC1(N2CC(CN[C@@H]3C[C@H]3c3ccccc3)C2)CCN(S(=O)(=O)c2ccccc2)CC1 (relative stereo)")
"≥ 7.00"
>>> value("CNC(=O)CN1CC(CC#N)(N2CCC(N[C@@H]3C[C@H]3c3ccccc3)CC2)C1")
"≥ 7.00"

Then this compound:
Record `O=C(O)CC1(N2CCC(CN[C@@H]3C[C@H]3c3ccccc3)CC2)CCC1` / LSD-1 enzyme (Homo sapiens (Human)), pIC50 recorded as ≥ 7.00
